# Species on record: Rattus norvegicus
# Test Method Notes: Open TG-GATES - Regimen: Single
# Type: toxicity, organism-based, Sprague-Dawley
# Design: regimen Single, gender Male, age 6 weeks
# Reported Conditions: in vivo, po, 0 mg/kg, 3 h, tissue Plasma, route gavage, dose level Control
Catalogue of compounds with associated CRE
Measured Parameter: CRE (mg/dL)

compound="CC(S)C(=O)NCC(=O)O (stereo not given)" endpoint_result=0.1
compound=O=c1ccc2ccccc2o1 endpoint_result=0.5
compound=CC(=O)[C@@]1(O)CC[C@H]2[C@@H]3C=C(Cl)C4=CC(=O)CC[C@]4(C)[C@H]3CC[C@@]21C endpoint_result=0.2
compound=O=C(O)c1ccccc1Nc1ccccc1 endpoint_result=0.2
compound="NS(=O)(=O)c1cc(C(=O)O)c(NCc2ccco2)cc1Cl [FUROSEMIDE]" endpoint_result=0.2
